# assayed.target: Tyrosine-protein phosphatase non-receptor type 1 (Homo sapiens)
# Sequence (P18031 whole entry): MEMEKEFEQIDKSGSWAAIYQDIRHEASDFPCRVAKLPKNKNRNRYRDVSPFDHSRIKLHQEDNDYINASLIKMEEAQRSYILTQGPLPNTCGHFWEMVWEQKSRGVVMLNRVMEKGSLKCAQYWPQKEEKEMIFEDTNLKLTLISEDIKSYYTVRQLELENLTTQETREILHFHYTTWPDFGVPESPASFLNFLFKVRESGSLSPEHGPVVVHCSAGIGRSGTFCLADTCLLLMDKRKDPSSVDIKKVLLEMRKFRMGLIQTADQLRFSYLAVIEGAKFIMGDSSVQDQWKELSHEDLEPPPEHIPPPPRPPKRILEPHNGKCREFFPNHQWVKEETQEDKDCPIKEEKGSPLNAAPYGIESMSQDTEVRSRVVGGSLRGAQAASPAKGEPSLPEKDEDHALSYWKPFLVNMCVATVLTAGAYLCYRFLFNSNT
# method.summary: Inhibition of recombinant PTP1B (unknown origin) using pNPP as substrate by spectrophotometric method
pIC50: −log10 of the molar value.
property: pIC50

# structure, pIC50
data = [
    ("O=C(COc1ccc2cc(C(O)(C(F)(F)F)C(F)(F)F)c(O)cc2c1)NC1CC1", "< 4.70"),
]

Record pIC50 per entry; entries follow.
1. CCCNC(=O)COc1ccc2cc(C(O)(C(F)(F)F)C(F)(F)F)c(O)cc2c1
2. O=C(COc1ccc2cc(C(O)(C(F)(F)F)C(F)(F)F)c(O)cc2c1)NC1c2ccccc2-c2ccccc21
3. Cc1ccc(O)c(C(O)(C(F)(F)F)C(F)(F)F)c1
4. O=C(COc1ccc2cc(C(O)(C(F)(F)F)C(F)(F)F)c(O)cc2c1)NC12CC3CC(CC(C3)C1)C2
5. O=C(COc1ccc2cc(C(O)(C(F)(F)F)C(F)(F)F)c(O)cc2c1)Nc1nc2ccccc2s1
6. Cc1ccc(S(=O)(=O)NNC(=O)COc2ccc3cc(C(O)(C(F)(F)F)C(F)(F)F)c(O)cc3c2)cc1
7. O=C(COc1ccc2cc(C(O)(C(F)(F)F)C(F)(F)F)c(O)cc2c1)NCc1ccccc1
8. CCN(CC)C(=O)COc1ccc2cc(C(O)(C(F)(F)F)C(F)(F)F)c(O)cc2c1

< 4.70
4.86
3.44
4.83
< 4.70
< 4.70
< 4.70
< 4.70

====

# assayed.target: Tyrosine-protein phosphatase non-receptor type 22 (Homo sapiens, UniProt Q9Y2R2)
# Sequence (Q9Y2R2 whole entry): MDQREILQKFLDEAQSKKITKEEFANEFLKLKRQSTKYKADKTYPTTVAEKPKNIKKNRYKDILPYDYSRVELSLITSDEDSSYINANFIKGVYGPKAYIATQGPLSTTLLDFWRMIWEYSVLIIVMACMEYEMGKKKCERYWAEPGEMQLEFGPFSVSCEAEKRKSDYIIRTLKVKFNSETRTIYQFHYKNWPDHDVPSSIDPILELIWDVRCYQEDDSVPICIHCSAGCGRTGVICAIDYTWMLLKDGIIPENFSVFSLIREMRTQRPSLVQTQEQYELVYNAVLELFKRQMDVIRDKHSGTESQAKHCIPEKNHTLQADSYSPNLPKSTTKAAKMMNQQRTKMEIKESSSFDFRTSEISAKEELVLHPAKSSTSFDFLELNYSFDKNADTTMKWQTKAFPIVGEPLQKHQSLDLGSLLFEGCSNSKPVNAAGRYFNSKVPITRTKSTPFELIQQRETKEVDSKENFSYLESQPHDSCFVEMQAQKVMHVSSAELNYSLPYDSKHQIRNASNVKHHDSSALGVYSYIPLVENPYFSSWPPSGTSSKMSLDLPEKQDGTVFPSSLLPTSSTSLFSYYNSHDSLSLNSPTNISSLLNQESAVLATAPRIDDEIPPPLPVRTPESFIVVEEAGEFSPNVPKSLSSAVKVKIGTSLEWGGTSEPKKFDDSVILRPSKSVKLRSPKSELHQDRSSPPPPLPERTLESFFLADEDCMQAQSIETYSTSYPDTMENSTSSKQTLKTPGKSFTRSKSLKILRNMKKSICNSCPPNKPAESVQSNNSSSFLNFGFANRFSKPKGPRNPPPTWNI
# method.summary: Inhibition of recombinant LYP (unknown origin) using pNPP as substrate by spectrophotometric method
Please respond with yes (1) when measured IC50 is strictly beneath 20 µM, and with no (0) in all other cases.

For orientation, consider the following solved cases.
# structure, assayed.target, answer.label
data = [
    ("CCCNC(=O)COc1ccc2cc(C(O)(C(F)(F)F)C(F)(F)F)c(O)cc2c1", "Tyrosine-protein phosphatase non-receptor type 22 (Homo sapiens, UniProt Q9Y2R2)", "no (0)"),
    ("COc1ccc(CNC(=O)COc2ccc3cc(C(O)(C(F)(F)F)C(F)(F)F)c(O)cc3c2)cc1OC", "Tyrosine-protein phosphatase non-receptor type 22 (Homo sapiens, UniProt Q9Y2R2)", "no (0)"),
    ("O=C(COc1ccc2cc(C(O)(C(F)(F)F)C(F)(F)F)c(O)cc2c1)NCCc1ccc(Cl)cc1Cl", "Tyrosine-protein phosphatase non-receptor type 22 (Homo sapiens, UniProt Q9Y2R2)", "yes (1)"),
    ("O=C(COc1ccc2cc(C(O)(C(F)(F)F)C(F)(F)F)c(O)cc2c1)Nc1nc2ccccc2s1", "Tyrosine-protein phosphatase non-receptor type 22 (Homo sapiens, UniProt Q9Y2R2)", "yes (1)"),
    ("Cc1ccc(S(=O)(=O)NNC(=O)COc2ccc3cc(C(O)(C(F)(F)F)C(F)(F)F)c(O)cc3c2)cc1", "Tyrosine-protein phosphatase non-receptor type 22 (Homo sapiens, UniProt Q9Y2R2)", "yes (1)"),
]

Dear colleague, could you confirm whether IC50 of `O=C(COc1ccc2cc(C(O)(C(F)(F)F)C(F)(F)F)c(O)cc2c1)NCc1ccc(F)cc1` falls below 20 µM? Thanks.
no (0)

Strictly below 20 µM in IC50? `O=C(COc1ccc2cc(C(O)(C(F)(F)F)C(F)(F)F)c(O)cc2c1)N1c2ccccc2Sc2ccccc21`
yes (1)

====

Consider the following molecules; for each one, report its pIC50.
# assayed.target: UniProtKB Q12923
# method.summary: Inhibition of recombinant FAP1 (unknown origin) using pNPP as substrate by spectrophotometric method
pIC50: −log10 of the molar value.

Before answering, review these 4 worked examples.
# structure, result
records = [
    ("CCN(CC)C(=O)COc1ccc2cc(C(O)(C(F)(F)F)C(F)(F)F)c(O)cc2c1", "< 4.70"),
    ("O=C(COc1ccc2cc(C(O)(C(F)(F)F)C(F)(F)F)c(O)cc2c1)Nc1cccc2ccccc12", "< 4.70"),
    ("COc1ccc(CNC(=O)COc2ccc3cc(C(O)(C(F)(F)F)C(F)(F)F)c(O)cc3c2)cc1OC", "< 4.70"),
    ("CC(C)c1ccc(NC(=O)COc2ccc3cc(C(O)(C(F)(F)F)C(F)(F)F)c(O)cc3c2)cc1", 5.19),
]

List reported pIC50 for each of these molecules:
1. Oc1cc(-c2ccccc2)ccc1C(O)(C(F)(F)F)C(F)(F)F
2. O=C(COc1ccc2cc(C(O)(C(F)(F)F)C(F)(F)F)c(O)cc2c1)NC12CC3CC(CC(C3)C1)C2
3. O=C(COc1ccc2cc(C(O)(C(F)(F)F)C(F)(F)F)c(O)cc2c1)NC1CC1

1: < 3.30; 2: 5.13; 3: < 4.70

Below are 5 molecules. Give each one its pIC50.
1. O=C(COc1ccc2cc(C(O)(C(F)(F)F)C(F)(F)F)c(O)cc2c1)NCCc1ccc(Cl)cc1Cl
2. CCCNC(=O)COc1ccc2cc(C(O)(C(F)(F)F)C(F)(F)F)c(O)cc2c1
3. Oc1c(C(O)(C(F)(F)F)C(F)(F)F)ccc2ccccc12
4. Oc1c(-c2ccccc2)cccc1C(O)(C(F)(F)F)C(F)(F)F
5. OC(c1ccccc1)(C(F)(F)F)C(F)(F)F

1: 5.37; 2: < 4.70; 3: < 3.30; 4: 3.35; 5: < 3.30

# return pIC50 for each item in the list
1. O=C(COc1ccc2cc(C(O)(C(F)(F)F)C(F)(F)F)c(O)cc2c1)NCc1ccc(F)cc1
2. O=C(COc1ccc2cc(C(O)(C(F)(F)F)C(F)(F)F)c(O)cc2c1)Nc1ccccc1
3. Oc1ccc(-c2ccccc2)cc1C(O)(C(F)(F)F)C(F)(F)F
4. O=C(COc1ccc2cc(C(O)(C(F)(F)F)C(F)(F)F)c(O)cc2c1)N(c1ccccc1)c1ccccc1

< 4.70
< 4.70
< 3.30
4.91

====

# assayed.target: Tyrosine-protein phosphatase non-receptor type 13 (Homo sapiens, UniProt Q12923)
# Sequence (Q12923 whole entry): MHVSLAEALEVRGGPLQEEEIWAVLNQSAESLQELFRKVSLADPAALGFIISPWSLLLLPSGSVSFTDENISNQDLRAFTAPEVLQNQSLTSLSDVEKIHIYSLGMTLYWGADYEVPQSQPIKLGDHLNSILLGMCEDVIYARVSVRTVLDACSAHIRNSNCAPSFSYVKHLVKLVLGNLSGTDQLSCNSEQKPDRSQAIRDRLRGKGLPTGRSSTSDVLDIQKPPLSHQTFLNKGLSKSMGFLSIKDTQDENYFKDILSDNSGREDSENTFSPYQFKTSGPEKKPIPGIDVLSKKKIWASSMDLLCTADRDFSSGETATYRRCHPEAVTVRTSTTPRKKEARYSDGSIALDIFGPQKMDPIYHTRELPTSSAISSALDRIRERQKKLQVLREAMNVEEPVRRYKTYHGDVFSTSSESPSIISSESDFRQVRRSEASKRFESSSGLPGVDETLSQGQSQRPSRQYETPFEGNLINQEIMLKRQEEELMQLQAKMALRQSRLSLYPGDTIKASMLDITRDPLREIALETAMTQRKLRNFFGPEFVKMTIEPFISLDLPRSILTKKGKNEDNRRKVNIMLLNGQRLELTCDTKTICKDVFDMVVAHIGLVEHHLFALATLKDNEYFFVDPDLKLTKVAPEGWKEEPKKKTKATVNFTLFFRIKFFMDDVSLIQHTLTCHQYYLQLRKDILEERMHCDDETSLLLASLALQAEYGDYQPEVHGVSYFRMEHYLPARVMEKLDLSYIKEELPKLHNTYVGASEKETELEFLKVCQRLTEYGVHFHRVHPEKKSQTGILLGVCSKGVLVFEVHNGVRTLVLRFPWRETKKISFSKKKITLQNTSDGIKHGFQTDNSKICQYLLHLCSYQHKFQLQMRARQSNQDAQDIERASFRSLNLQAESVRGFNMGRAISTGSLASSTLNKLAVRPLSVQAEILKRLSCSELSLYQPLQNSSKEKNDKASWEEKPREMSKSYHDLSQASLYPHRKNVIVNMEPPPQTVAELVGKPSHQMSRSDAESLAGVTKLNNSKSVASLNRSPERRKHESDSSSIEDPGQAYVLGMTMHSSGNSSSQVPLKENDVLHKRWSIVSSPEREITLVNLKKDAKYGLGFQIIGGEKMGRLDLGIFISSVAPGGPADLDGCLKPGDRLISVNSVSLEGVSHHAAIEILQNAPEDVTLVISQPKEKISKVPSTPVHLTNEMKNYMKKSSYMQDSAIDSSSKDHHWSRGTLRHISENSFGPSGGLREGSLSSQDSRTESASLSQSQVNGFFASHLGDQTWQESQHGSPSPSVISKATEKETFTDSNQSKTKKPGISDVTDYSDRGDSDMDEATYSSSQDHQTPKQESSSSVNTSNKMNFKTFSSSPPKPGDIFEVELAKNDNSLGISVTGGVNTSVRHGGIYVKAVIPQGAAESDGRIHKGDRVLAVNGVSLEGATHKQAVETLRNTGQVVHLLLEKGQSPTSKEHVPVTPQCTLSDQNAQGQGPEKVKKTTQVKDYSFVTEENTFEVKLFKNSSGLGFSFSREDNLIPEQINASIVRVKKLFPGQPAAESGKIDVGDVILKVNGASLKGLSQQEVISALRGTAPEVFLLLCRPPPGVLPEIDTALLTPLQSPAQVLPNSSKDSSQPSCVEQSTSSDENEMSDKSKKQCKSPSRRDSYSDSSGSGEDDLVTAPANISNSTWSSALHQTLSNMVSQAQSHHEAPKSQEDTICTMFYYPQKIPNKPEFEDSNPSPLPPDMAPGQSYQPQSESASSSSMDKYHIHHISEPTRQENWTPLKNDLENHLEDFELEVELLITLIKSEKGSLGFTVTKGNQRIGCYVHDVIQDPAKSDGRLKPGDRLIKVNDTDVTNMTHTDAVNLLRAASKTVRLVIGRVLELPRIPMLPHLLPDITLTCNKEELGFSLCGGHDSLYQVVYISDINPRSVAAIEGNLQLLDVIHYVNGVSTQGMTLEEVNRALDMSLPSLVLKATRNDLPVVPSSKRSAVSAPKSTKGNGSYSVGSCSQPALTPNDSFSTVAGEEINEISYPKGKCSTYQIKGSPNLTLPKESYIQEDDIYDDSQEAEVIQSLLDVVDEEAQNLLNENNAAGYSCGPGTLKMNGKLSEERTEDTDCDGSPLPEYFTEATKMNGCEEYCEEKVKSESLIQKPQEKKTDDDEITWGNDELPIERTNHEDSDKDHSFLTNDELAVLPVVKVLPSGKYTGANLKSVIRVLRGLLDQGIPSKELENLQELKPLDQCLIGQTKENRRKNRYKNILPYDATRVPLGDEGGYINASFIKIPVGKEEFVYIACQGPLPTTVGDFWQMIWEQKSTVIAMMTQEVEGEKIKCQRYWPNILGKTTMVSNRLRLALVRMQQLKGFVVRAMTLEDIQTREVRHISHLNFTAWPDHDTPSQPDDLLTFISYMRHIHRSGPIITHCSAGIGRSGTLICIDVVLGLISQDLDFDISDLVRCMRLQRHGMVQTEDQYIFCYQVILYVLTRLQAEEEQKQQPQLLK
# method.summary: Inhibition of recombinant FAP1 (unknown origin) using pNPP as substrate by spectrophotometric method
property: IC50 (µM)
Numbers only, in µM.

Please review the entries below; each comes with its answer.
# structure, IC50, µM
measured = [
    ("O=C(COc1ccc2cc(C(O)(C(F)(F)F)C(F)(F)F)c(O)cc2c1)N1c2ccccc2Sc2ccccc21", 2.2),
    ("O=C(COc1ccc2cc(C(O)(C(F)(F)F)C(F)(F)F)c(O)cc2c1)Nc1ccc(-c2ccccc2)cc1", 2.8),
    ("Cc1ccc(O)c(C(O)(C(F)(F)F)C(F)(F)F)c1", 454),
    ("Oc1cc2ccccc2cc1C(O)(C(F)(F)F)C(F)(F)F", 128),
    ("Cc1ccc(S(=O)(=O)NNC(=O)COc2ccc3cc(C(O)(C(F)(F)F)C(F)(F)F)c(O)cc3c2)cc1", 14.9),
    ("O=C(COc1ccc2cc(C(O)(C(F)(F)F)C(F)(F)F)c(O)cc2c1)Nc1nc2ccccc2s1", 9.9),
]

So, `O=C(COc1ccc2cc(C(O)(C(F)(F)F)C(F)(F)F)c(O)cc2c1)NC1c2ccccc2-c2ccccc21` ? Its IC50 was 5.6

====

I'd appreciate it if you could supply pIC50 values for the items below.
# assayed.target: Receptor-type tyrosine-protein phosphatase C (Homo sapiens, UniProt P08575)
# Sequence (P08575 whole entry): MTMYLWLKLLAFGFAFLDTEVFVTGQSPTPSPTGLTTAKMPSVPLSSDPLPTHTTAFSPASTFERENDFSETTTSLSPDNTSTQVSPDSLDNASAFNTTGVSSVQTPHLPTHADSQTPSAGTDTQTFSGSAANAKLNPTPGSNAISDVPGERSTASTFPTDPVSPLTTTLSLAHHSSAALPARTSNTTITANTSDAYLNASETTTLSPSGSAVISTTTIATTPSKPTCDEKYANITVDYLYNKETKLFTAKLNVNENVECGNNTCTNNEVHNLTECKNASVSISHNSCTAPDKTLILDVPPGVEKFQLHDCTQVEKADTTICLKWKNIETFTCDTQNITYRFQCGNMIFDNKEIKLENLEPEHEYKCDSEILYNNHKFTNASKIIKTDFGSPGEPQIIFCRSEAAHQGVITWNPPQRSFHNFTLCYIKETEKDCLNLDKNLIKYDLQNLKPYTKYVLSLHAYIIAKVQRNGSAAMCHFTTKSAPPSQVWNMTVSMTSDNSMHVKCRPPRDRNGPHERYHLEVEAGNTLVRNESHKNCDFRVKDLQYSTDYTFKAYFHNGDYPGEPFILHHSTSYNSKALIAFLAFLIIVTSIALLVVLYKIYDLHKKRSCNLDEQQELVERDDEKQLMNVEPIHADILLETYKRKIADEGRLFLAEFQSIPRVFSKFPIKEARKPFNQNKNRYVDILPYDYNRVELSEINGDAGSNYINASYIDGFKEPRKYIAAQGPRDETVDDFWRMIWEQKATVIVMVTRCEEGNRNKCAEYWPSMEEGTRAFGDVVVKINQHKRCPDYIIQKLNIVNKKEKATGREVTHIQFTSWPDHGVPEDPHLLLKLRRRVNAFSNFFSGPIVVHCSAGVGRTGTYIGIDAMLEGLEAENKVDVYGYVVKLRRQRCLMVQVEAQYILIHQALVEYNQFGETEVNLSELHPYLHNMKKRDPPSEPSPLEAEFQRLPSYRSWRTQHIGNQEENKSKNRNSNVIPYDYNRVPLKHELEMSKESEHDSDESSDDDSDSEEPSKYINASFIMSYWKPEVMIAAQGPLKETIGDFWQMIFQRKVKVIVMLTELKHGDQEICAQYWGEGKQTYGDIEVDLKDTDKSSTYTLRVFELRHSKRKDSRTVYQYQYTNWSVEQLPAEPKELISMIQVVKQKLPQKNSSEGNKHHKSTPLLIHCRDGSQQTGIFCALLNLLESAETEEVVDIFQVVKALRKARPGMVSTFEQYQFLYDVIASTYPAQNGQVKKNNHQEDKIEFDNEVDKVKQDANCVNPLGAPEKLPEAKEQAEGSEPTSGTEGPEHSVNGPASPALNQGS
# method.summary: Inhibition of recombinant CD45 (unknown origin) using pNPP as substrate by spectrophotometric method
pIC50: −log10 of the molar value.

Recorded pIC50, per entry:
# structure, pIC50
measured = [
    ("Oc1cc2ccccc2cc1C(O)(C(F)(F)F)C(F)(F)F", 3.95),
    ("Oc1c(C(O)(C(F)(F)F)C(F)(F)F)ccc2ccccc12", "< 3.30"),
]

Give pIC50 for each of the items listed below.
1. O=C(COc1ccc2cc(C(O)(C(F)(F)F)C(F)(F)F)c(O)cc2c1)NC1CC1
2. O=C(COc1ccc2cc(C(O)(C(F)(F)F)C(F)(F)F)c(O)cc2c1)NCc1ccc(F)cc1
3. O=C(COc1ccc2cc(C(O)(C(F)(F)F)C(F)(F)F)c(O)cc2c1)Nc1ccccc1
4. Cc1ccc(O)c(C(O)(C(F)(F)F)C(F)(F)F)c1
5. CC(C)c1ccc(NC(=O)COc2ccc3cc(C(O)(C(F)(F)F)C(F)(F)F)c(O)cc3c2)cc1
6. CCN(CC)C(=O)COc1ccc2cc(C(O)(C(F)(F)F)C(F)(F)F)c(O)cc2c1

< 4.70
< 4.70
< 4.70
3.68
5.11
< 4.70

Dear colleague, could you please provide pIC50 for the compounds listed below?
1. OC(c1ccccc1)(C(F)(F)F)C(F)(F)F
2. CCCNC(=O)COc1ccc2cc(C(O)(C(F)(F)F)C(F)(F)F)c(O)cc2c1

["< 3.30", "< 4.70"]
